Hello, the source for this data is paper PMC6792352, in case you need it.

test system: GH3-TRE-Luc cell line; conditions: read-out: AC50 (uM) modified / 1000; Tox21_110001=Tox21_302333; viability, 1 nM T3 present, 24 h
quantity: CC50 (µM)
# output: bare number, implied unit µM

Q: Let me know recorded CC50 for CCCCCC(=O)O[C@]1(C(C)=O)CC[C@H]2[C@@H]3CCC4=CC(=O)CC[C@]4(C)[C@H]3CC[C@@]21C [Hydroxyprogesterone caproate] , thanks.
A: 26.2

###

assay: in vitro; conditions: rat, gh3-tre-luc cells, AC50 (uM) modified / 1000
Structures can show the parent of a compound that is named as a salt.
quantity: CC50 at 24 h

Consider the worked cases shown below.
compound	CC50 at 24 h
Nc1ccn([C@@H]2CO[C@H](CO)O2)c(=O)n1 [Troxacitabine]	> 50 µM
CCc1oc2ccccc2c1C(=O)c1cc(I)c(O)c(I)c1 [Benziodarone]	24.8 µM
C[N+](C)(CCCCCC[N+](C)(C)C1c2ccccc2-c2ccccc21)C1c2ccccc2-c2ccccc21 [Hexafluorenium dibromide]	> 50 µM
COc1ccc2[nH]c([S+]([O-])Cc3ncc(C)c(OC)c3C)nc2c1 (stereo not drawn) [Omeprazole]	> 90 µM
CNCCCN1c2ccccc2CCc2ccccc21 [Desipramine hydrochloride]	7.08 µM
CO/N=C(\C(=O)N[C@@H]1C(=O)N2C(C(=O)O)=CCS[C@H]12)c1csc(N)n1 [Ceftizoxime sodium]	> 50 µM

Q: Let me know recorded CC50 at 24 h for Nc1nc2c(ncn2CCC(CO)CO)c(=O)[nH]1 [Penciclovir] , thanks.
A: > 50 µM

Q: Let me know recorded CC50 at 24 h for COc1ccc2[nH]c([S+]([O-])Cc3ncc(C)c(OC)c3C)nc2n1 (stereo not drawn) [Tenatoprazole] , thanks.
A: 41.8 µM

Q: Let me know recorded CC50 at 24 h for "CC(=O)OC/C=C(/C)CCC=C(C)C" , thanks.
A: > 90 µM
